# Test system: U2OS
# protocol-details: Multiplex assay against U2OS
# Type: toxicity, cell-based
# test-parameters: human, 24 h, 10 µM, compound concentration 10 uM, replicate 1
Measured Population Fragmented Nuclei (%) of individual entries
outcome-measure: Population Fragmented Nuclei (%)

CN(C)CC#Cc1ccc(OCCCc2sc(N3CCc4cccc(C(=O)Nc5nc6ccccc6s5)c4C3)nc2C(=O)O)c(F)c1    20
CN(C)C(=O)/C(C#N)=C/c1ccc(-c2nc3cnc4[nH]ccc4c3n2C2CCCCC2)o1    17
CN1CCC[C@@H]1CCO[C@](C)(c1ccccc1)c1ccc(Cl)cc1.O=C(O)/C=C/C(=O)O [CLEMASTINE FUMARATE]    33
c1cn2cc(-c3ccc4cn[nH]c4c3)nc(Nc3ccc(N4CCOCC4)cc3)c2n1    35

---

Measured Population Pyknosed Nuclei (%) of individual entries
# Tested on: U2OS
# protocol-details: Multiplex assay against U2OS
# Assay type: toxicity, cell-based
# test-parameters: human, 12 h, 1 µM, compound concentration 1 uM, replicate 1
outcome-measure: Population Pyknosed Nuclei (%)

C=CC(=O)Nc1cccc(C(=O)Nc2ccc(Nc3cc(-c4[nH]c(SC)nc4C)ccn3)cc2)c1    12
Cc1nc(-c2ccc(-c3ccc(C(=O)N4CCc5cc6c(cc54)C4(CCN(C)CC4)CO6)cc3)c(C)c2)no1    13
Cl.N#Cc1ccc2[nH]cc(CCCCN3CCN(c4ccc5oc(C(N)=O)cc5c4)CC3)c2c1 [VILAZODONE HYDROCHLORIDE]    17
CN(C)C(=O)/C(C#N)=C/c1ccc(-c2nc3cnc4[nH]ccc4c3n2C2CCCCC2)o1    13
COc1cccc([C@@H](C)NCCCc2ccccc2Cl)c1.Cl [TECALCET HYDROCHLORIDE]    5
Cc1csc2c(N[C@@H](C)CN3CCN(S(=O)(=O)c4ccc(Cl)c(Cl)c4)CC3)ncnc12    19
Cc1nc(Nc2n[nH]c3c2CN(C(=O)N[C@H](CN(C)C)c2ccccc2)C3(C)C)c2sccc2n1    11
CC(C)(O)CNc1ncc(-c2ccnc(Nc3ccnc(Cl)c3)n2)c(CC2CC2)n1    18
C[C@@H](NCCCc1cccc(C(F)(F)F)c1)c1cccc2ccccc12.Cl [CINACALCET HYDROCHLORIDE]    13
CCN(CC)CCCCNc1ncc2cc(-c3cc(OC)cc(OC)c3)c(NC(=O)NC(C)(C)C)nc2n1    67
CN(C)CC#Cc1ccc(OCCCc2sc(N3CCc4cccc(C(=O)Nc5nc6ccccc6s5)c4C3)nc2C(=O)O)c(F)c1    21
CN1CCN(CCOc2cc(OC3CCOCC3)c3c(Nc4c(Cl)ccc5c4OCO5)ncnc3c2)CC1    15

---

# Test system: Fibroblast
# protocol-details: Multiplex assay against human fibroblast
# Format: toxicity, cell-based
# test-parameters: 48 h, 1 µM, compound concentration 1 uM, replicate 1
outcome-measure: Population Hoechst High Intensity Objects (%)

CN(C)CC#Cc1ccc(OCCCc2sc(N3CCc4cccc(C(=O)Nc5nc6ccccc6s5)c4C3)nc2C(=O)O)c(F)c1 [A-1155463]    18
Cc1nc(-c2ccc(-c3ccc(C(=O)N4CCc5cc6c(cc54)C4(CCN(C)CC4)CO6)cc3)c(C)c2)no1 [SB-224289]    21
COc1cc(-n2cnc3cc(-c4ccc(Cl)cc4)sc3c2=O)ccc1OCCN1CCCC1    18
CC[C@H](C)C(=O)O[C@H]1C[C@@H](C)C=C2C=C[C@H](C)[C@H](CC[C@@H]3C[C@@H](O)CC(=O)O3)[C@H]21 [LOVASTATIN]    9
Cn1cc(-c2[nH]c3cc(NC(=O)[C@H](N)C4CCCCC4)cc4c3c2C=NNC4=O)cn1    14
Cc1[nH]c(/C=C2\C(=O)Nc3ccc(S(=O)(=O)N(C)c4cccc(Cl)c4)cc32)c(C)c1C(=O)N1CCN(C)CC1    11
Cl.N#Cc1ccc2[nH]cc(CCCCN3CCN(c4ccc5oc(C(N)=O)cc5c4)CC3)c2c1 [VILAZODONE HYDROCHLORIDE]    30
C=CC(=O)Nc1ccc2ncnc(Nc3ccc(OCc4cccc(F)c4)c(Cl)c3)c2c1.Cc1ccc(S(=O)(=O)O)cc1    8
CN1CCN(c2ccc(OC(F)(F)F)c(Nc3ncc4c(n3)-c3c(c(C(N)=O)nn3CCO)CC4)c2)CC1 [ONVANSERTIB]    21

---

Measured Population Pyknosed Nuclei (%) of individual entries
# Test system: Fibroblast
# protocol-details: Multiplex assay against human fibroblast
# Format: toxicity, cell-based
# test-parameters: 48 h, 10 µM, compound concentration 10 uM, replicate 1
outcome-measure: Population Pyknosed Nuclei (%)

CN(C)C(=O)N[C@H]1CC[C@H](CCN2CCN(c3cccc(Cl)c3Cl)CC2)CC1.Cl [CARIPRAZINE HYDROCHLORIDE]    9
Cc1nc(-c2ccc(-c3ccc(C(=O)N4CCc5cc6c(cc54)C4(CCN(C)CC4)CO6)cc3)c(C)c2)no1 [SB-224289]    31
CN(C)CC#Cc1ccc(OCCCc2sc(N3CCc4cccc(C(=O)Nc5nc6ccccc6s5)c4C3)nc2C(=O)O)c(F)c1 [A-1155463]    22
CN1CCN(CCOc2cc(OC3CCOCC3)c3c(Nc4c(Cl)ccc5c4OCO5)ncnc3c2)CC1 [SARACATINIB]    6
COc1cc2nccc(Oc3ccc(NC(=O)Nc4cc(C)on4)c(Cl)c3)c2cc1OC.O    18
Cc1c(-c2ccc(O)cc2)n(Cc2ccc(OCCN3CCCCCC3)cc2)c2ccc(O)cc12 [BAZEDOXIFENE]    30
CN1CCN(c2ccc(OC(F)(F)F)c(Nc3ncc4c(n3)-c3c(c(C(N)=O)nn3CCO)CC4)c2)CC1 [ONVANSERTIB]    13
Cc1csc2c(N[C@@H](C)CN3CCN(S(=O)(=O)c4ccc(Cl)c(Cl)c4)CC3)ncnc12    29
Cc1cc(C)cc(-c2cnc3cc(Cl)c(-c4cccc(O)c4)cc3c2OCCCN)c1    26
O=C1NCN(c2ccccc2)C12CCN(CCCOc1ccc(F)cc1)CC2 [SPIRAMIDE]    9
CN1CCC[C@@H]1CCO[C@](C)(c1ccccc1)c1ccc(Cl)cc1.O=C(O)/C=C/C(=O)O [CLEMASTINE FUMARATE]    15
NC(=O)Nc1cc(-c2cccc(F)c2)sc1C(=O)N[C@H]1CCCNC1 [AZD-7762]    3
C[C@@H](NCCCc1cccc(C(F)(F)F)c1)c1cccc2ccccc12.Cl [CINACALCET HYDROCHLORIDE]    20
C=CC(=O)Nc1ccc2ncnc(Nc3ccc(OCc4cccc(F)c4)c(Cl)c3)c2c1.Cc1ccc(S(=O)(=O)O)cc1    8
CCn1c(=O)c(-c2ccc(Cl)cc2Cl)cc2cnc(Nc3ccc(N4CCNCC4)c(F)c3)nc21    16
COc1cc(-n2cnc3cc(-c4ccc(Cl)cc4)sc3c2=O)ccc1OCCN1CCCC1    20
CCOCCn1cc(C(=O)Nc2ccc(-n3nc(-c4cccnc4)cc3C(F)(F)F)cn2)ccc1=O [BI 1935]    12
Cc1[nH]c(/C=C2\C(=O)Nc3ccc(S(=O)(=O)N(C)c4cccc(Cl)c4)cc32)c(C)c1C(=O)N1CCN(C)CC1    22
COc1ncc(-c2ccc3nccc(-c4ccnnc4)c3c2)cc1NS(=O)(=O)c1ccc(F)cc1F [OMIPALISIB]    15
Cl.N#Cc1ccc2[nH]cc(CCCCN3CCN(c4ccc5oc(C(N)=O)cc5c4)CC3)c2c1 [VILAZODONE HYDROCHLORIDE]    53
Cn1cc(-c2[nH]c3cc(NC(=O)[C@H](N)C4CCCCC4)cc4c3c2C=NNC4=O)cn1    5
CC(C)NCC(O)COc1ccc(CCOCC2CC2)cc1.Cl (configuration not stated) [BETAXOLOL HYDROCHLORIDE]    8

---

# Test system: HEK-293T
# protocol-details: Multiplex assay against HEK293T
# Format: toxicity, cell-based
# test-parameters: human, 12 h, 1 µM, compound concentration 1 uM, replicate 1
Measured Population Pyknosed Nuclei (%) of individual entries
outcome-measure: Population Pyknosed Nuclei (%)

CC[C@H](C)C(=O)O[C@H]1C[C@@H](C)C=C2C=C[C@H](C)[C@H](CC[C@@H]3C[C@@H](O)CC(=O)O3)[C@H]21    60
C=CC(=O)Nc1ccc2ncnc(Nc3ccc(OCc4cccc(F)c4)c(Cl)c3)c2c1.Cc1ccc(S(=O)(=O)O)cc1    49
C[C@@H](NCCCc1cccc(C(F)(F)F)c1)c1cccc2ccccc12.Cl [CINACALCET HYDROCHLORIDE]    46
Cc1nc(-c2cn3c(n2)-c2ccc(-c4cnn(C(C)(C)C(N)=O)c4)cc2OCC3)n(C(C)C)n1    41
CN1CCN(CCOc2cc(OC3CCOCC3)c3c(Nc4c(Cl)ccc5c4OCO5)ncnc3c2)CC1    58
Cc1[nH]c(/C=C2\C(=O)Nc3ccc(S(=O)(=O)N(C)c4cccc(Cl)c4)cc32)c(C)c1C(=O)N1CCN(C)CC1    44

The values you see were collected from ChEMBL document CHEMBL4689842.
